- SUBJECT_OF_TEST: DNA-PK (Homo sapiens (Human))
- RUN_DESCRIPTION: DNA-PK assay (biochemical), flashplate 33P-ATP kinase assay
- MEASUREMENT_CONDITIONS: biochemical DNA-PK assay
RECORDED_METRIC: IC50

Previously resolved entries follow.
[
  {
    "COMPOUND": "OC(c1cc(-c2ncnc3cc(N4CCOCC4)ccc23)c(F)cc1F)c1nccnc1OC(F)F (stereo not shown) [Example 451]",
    "IC50": "3 to 7 nM"
  },
  {
    "COMPOUND": "Cc1cncnc1C(O)c1cc(-c2ncnc3cc(N4CCOCC4)ccc23)ccc1Cl (stereo not shown) [Example 417]",
    "IC50": "7 to 30 nM"
  },
  {
    "COMPOUND": "Cc1nccnc1C(O)c1ccc(F)c(-c2ncnc3cc(N4CCOCC4)c(F)cc23)c1 (stereo not shown)",
    "IC50": "7 to 30 nM"
  }
]

Using known records, supply IC50 for OC(c1cc(-c2ncnc3cc(N4CCOCC4)ccc23)c(F)cc1F)c1ncnc2ccoc12 (stereo not shown) [Example 445]
3 to 7 nM

###

- SUBJECT_OF_TEST: DNA-PK (Homo sapiens (Human))
- RUN_DESCRIPTION: DNA-PK assay (biochemical), flashplate 33P-ATP kinase assay
- MEASUREMENT_CONDITIONS: biochemical DNA-PK assay
RECORDED_METRIC: IC50

[
  {
    "COMPOUND": "Cc1nccnc1[C@H](O)c1ccc(F)c(-c2ncnc3cc(N4CCOCC4)cnc23)c1",
    "MEASURED_VALUE": "< 3 nM"
  },
  {
    "COMPOUND": "NC(=O)C(c1ccc(F)c(-c2ncnc3cc(N4CCOCC4)ccc23)c1)c1ncccc1Cl (stereo not shown)",
    "MEASURED_VALUE": "7 to 30 nM"
  },
  {
    "COMPOUND": "Cn1c(C(O)c2ccc(F)c(-c3ncnc4cc(N5CCOCC5)ccc34)c2)nccc1=O (stereo not shown)",
    "MEASURED_VALUE": "3 to 7 nM"
  },
  {
    "COMPOUND": "Cc1nccnc1C(O)c1ccc(F)c(-c2ncnc3cc(N4CCOCC4)sc23)c1 (stereo not shown) [Example 246]",
    "MEASURED_VALUE": "3 to 7 nM"
  },
  {
    "COMPOUND": "[2H]C1([2H])OC([2H])([2H])C([2H])([2H])N(c2ccc3c(-c4cc(C(O)c5nccnc5OC)c(Cl)cc4F)ncnc3c2)C1([2H])[2H] (stereo not shown) [Example 258]",
    "MEASURED_VALUE": "3 to 7 nM"
  },
  {
    "COMPOUND": "OC(c1cc(-c2ncnc3cc(N4CCOCC4)ccc23)c(F)cc1F)c1nncc2sccc12 (stereo not shown)",
    "MEASURED_VALUE": "< 3 nM"
  }
]

Using known records, supply IC50 for OC(c1ccc(F)c(-c2ncnc3cc(N4CCOCC4)ccc23)c1)c1nccnc1C(F)(F)F (stereo not shown)
3 to 7 nM

###

- SUBJECT_OF_TEST: UniProtKB P78527
- RUN_DESCRIPTION: DNA-PK assay (biochemical), flashplate 33P-ATP kinase assay
- MEASUREMENT_CONDITIONS: enzymatic; 5 μM ATP
RECORDED_METRIC: IC50

[
  {
    "COMPOUND": "OC(c1ccc(F)c(-c2ncnc3cc(N4CCOCC4)ccc23)c1)c1nccs1 (stereo not shown) [Example 212]",
    "IC50": "< 3 nM"
  },
  {
    "COMPOUND": "O[C@H](c1ccc(F)c(-c2ncnc3cc(N4CCOCC4)ccc23)c1)c1nccnc1Cl",
    "IC50": "< 3 nM"
  },
  {
    "COMPOUND": "COc1cnc(C(O)c2ccc(F)c(-c3ncnc4cc(N5CCOCC5)ccc34)c2)cn1 (stereo not shown) [Example 52]",
    "IC50": "3 to 7 nM"
  },
  {
    "COMPOUND": "OC(c1ccc(F)c(-c2ncnc3cc(N4CCOCC4)ccc23)c1)c1ncccc1OC(F)F (stereo not shown)",
    "IC50": "< 3 nM"
  },
  {
    "COMPOUND": "OC(c1cccnn1)c1cc(-c2ncnc3cc(N4CCOCC4)ccc23)c(F)cc1Cl (stereo not shown) [Example 47]",
    "IC50": "3 to 7 nM"
  },
  {
    "COMPOUND": "COC(=O)COc1ccc(C(O)c2cc(-c3ncnc4cc(N5CCOCC5)ccc34)c(F)cc2Cl)nn1 (stereo not shown)",
    "IC50": "3 to 7 nM"
  },
  {
    "COMPOUND": "COc1cnc(C(O)c2ccc(F)c(-c3ncnc4cc(N5CCOCC5)ccc34)c2)nc1 (stereo not shown) [Example 67]",
    "IC50": "7 to 30 nM"
  },
  {
    "COMPOUND": "OC(c1cnccn1)c1cc(-c2ncnc3cc(N4CCOCC4)ccc23)c(F)cc1Cl (stereo not shown)",
    "IC50": "7 to 30 nM"
  },
  {
    "COMPOUND": "OC(c1ccc(F)c(-c2ncnc3cc(N4CCOCC4)sc23)c1)c1nccnc1Cl (stereo not shown) [Example 37]",
    "IC50": "< 3 nM"
  },
  {
    "COMPOUND": "OC(c1ccc(F)c(-c2ncnc3cc(N4CCOCC4)ccc23)c1)c1nccnc1Cl (stereo not shown)",
    "IC50": "< 3 nM"
  }
]

Give IC50 for this entry on UniProtKB P78527: CN(C)CCOc1ccc(C(O)c2ccc(F)c(-c3ncnc4cc(N5CCOCC5)ccc34)c2)nn1 (stereo not shown)
7 to 30 nM

Give IC50 for this entry on UniProtKB P78527: COc1cnc(C(O)c2ccc(F)c(-c3ncnc4cc(N5CCOCC5)ccc34)c2)nc1 (stereo not shown) [Example 66]
7 to 30 nM

Give IC50 for this entry on UniProtKB P78527: OC(c1cc(-c2ncnc3cc(N4CCOCC4)ccc23)ccc1Cl)c1ncnc2ccsc12 (stereo not shown)
3 to 7 nM

Give IC50 for this entry on UniProtKB P78527: "Cc1nccnc1[C@H](O)c1ccc(F)c(-c2ncnc3cc(N4CCOCC4)ccc23)c1"
< 3 nM

Give IC50 for this entry on UniProtKB P78527: OC(c1ccc2nccn2n1)c1cc(-c2ncnc3cc(N4CCOCC4)ccc23)c(F)cc1F (single isomer, unassigned) [Example 20]
7 to 30 nM

Give IC50 for this entry on UniProtKB P78527: COc1cnc(Cl)c(C(O)c2ccc(F)c(-c3ncnc4cc(N5CCOCC5)ccc34)c2)c1 (stereo not shown)
< 3 nM

Give IC50 for this entry on UniProtKB P78527: COc1ccc(C(O)c2cc(-c3ncnc4cc(N5CCOCC5)ccc34)c(F)cc2F)c(F)c1 (stereo not shown)
7 to 30 nM

Give IC50 for this entry on UniProtKB P78527: OC(c1ccc(F)c(-c2ncnc3cc(N4CCOCC4)sc23)c1)c1nccnc1Cl (single isomer, unassigned) [Example 23]
7 to 30 nM

Give IC50 for this entry on UniProtKB P78527: OC(c1cc(-c2ncnc3cc(N4CCOCC4)ccc23)c(F)cc1Cl)c1nccnc1Cl (stereo not shown)
3 to 7 nM

Give IC50 for this entry on UniProtKB P78527: "Cc1nccnc1[C@@H](O)c1ccc(F)c(-c2ncnc3cc(N4CCOCC4)ccc23)c1"
7 to 30 nM

Give IC50 for this entry on UniProtKB P78527: COc1cnc(Cl)c(C(O)c2ccc(F)c(-c3ncnc4cc(N5CCOCC5)ccc34)c2)n1 (stereo not shown)
< 3 nM

Give IC50 for this entry on UniProtKB P78527: COc1nnc(C(O)c2cc(-c3ncnc4cc(N5CCOCC5)ccc34)c(F)cc2Cl)c2ccncc12 (stereo not shown)
7 to 30 nM

Give IC50 for this entry on UniProtKB P78527: OC(c1ccc(F)c(-c2ncnc3cc(N4CCOCC4)ccc23)c1)c1ncccc1Cl (stereo not shown)
< 3 nM

Give IC50 for this entry on UniProtKB P78527: COc1nnc(C(O)c2cc(-c3ncnc4cc(N5CCOCC5)ccc34)c(F)cc2Cl)cc1C (stereo not shown)
7 to 30 nM

Give IC50 for this entry on UniProtKB P78527: Cn1nc(C(O)c2cc(-c3ncnc4cc(N5CCOCC5)ccc34)c(F)cc2Cl)ccc1=O (single isomer, unassigned) [Example 45]
< 3 nM

Give IC50 for this entry on UniProtKB P78527: OC(c1ccc2nccn2n1)c1cc(-c2ncnc3cc(N4CCOCC4)ccc23)c(F)cc1F (stereo not shown) [Example 51]
< 3 nM
